molecular target: DRB5*0101 (Homo sapiens, UniProt P01903+Q30154); assay: biochemical
measured-endpoint: IC50 (µM)

>>> value_observed("CC[C@H](C)[C@H](NC(=O)[C@H](CCCNC(=N)N)NC(=O)[C@H](CCCCN)NC(=O)[C@@H](NC(=O)[C@H](CCCNC(=N)N)NC(=O)[C@H](CCC(=O)O)NC(=O)CNC(=O)[C@@H](NC(=O)[C@@H](NC(=O)[C@H](CC(=O)O)NC(=O)[C@H](CCSC)NC(=O)[C@H](CC(N)=O)NC(=O)[C@@H]1CCCN1C(=O)[C@@H](NC(=O)[C@H](CCC(=O)O)NC(=O)[C@@H]1CCCN1)[C@@H](C)O)C(C)C)[C@@H](C)CC)[C@@H](C)CC)C(=O)N[C@@H](CCCCN)C(=O)O [NS5 268-284]")
2.83
>>> value_observed("CC(C)C[C@H](NC(=O)[C@H](CCCNC(=N)N)NC(=O)[C@H](CCCCN)NC(=O)CNC(=O)[C@H](CC(N)=O)NC(=O)[C@H](Cc1ccc(O)cc1)NC(=O)[C@@H](NC(=O)[C@H](CC(C)C)NC(=O)[C@@H](N)C(C)C)[C@@H](C)O)C(=O)N[C@@H](CCC(=O)O)C(=O)N1CCC[C@H]1C(=O)N[C@@H](CC(N)=O)C(=O)N[C@@H](Cc1c[nH]c2ccccc12)C(=O)N[C@@H](C)C(=O)N[C@@H](CO)C(=O)O [NS3 57-71]")
3.76

----------
Readings of pIC50 for the listed compounds
target: DRB4*0101 (Homo sapiens, UniProt P01903+P13762, G164S); test: biochemical
pIC50: −log10 of the molar value.
measured-endpoint: pIC50

>>> value_observed("CC[C@H](C)[C@H](NC(=O)[C@H](CC(C)C)NC(=O)[C@H](CC(=O)O)NC(=O)[C@H](CCCCN)NC(=O)[C@@H](N)CCCCN)C(=O)N[C@@H](CO)C(=O)N[C@@H](Cc1ccc(O)cc1)C(=O)NCC(=O)NCC(=O)NCC(=O)N[C@@H](Cc1c[nH]c2ccccc12)C(=O)N[C@@H](CCCNC(=N)N)C(=O)N[C@@H](CC(C)C)C(=O)N[C@@H](CO)C(=O)N[C@@H](C)C(=O)O")
5.46
>>> value_observed("CSCC[C@H](NC(=O)[C@@H](NC(=O)[C@@H](NC(=O)[C@@H](NC(=O)[C@H](CS)NC(=O)CNC(=O)CNC(=O)[C@H](Cc1c[nH]cn1)NC(=O)[C@H](CCC(=O)O)NC(=O)[C@H](CC(C)C)NC(=O)[C@@H](NC(=O)[C@@H](NC(=O)[C@H](CC(=O)O)NC(=O)[C@@H](N)C(C)C)C(C)C)C(C)C)C(C)C)[C@@H](C)O)[C@@H](C)O)C(=O)N[C@@H](C)C(=O)O")
5.35
>>> value_observed("CC[C@H](C)[C@H](NC(=O)[C@H](CCC(=O)O)NC(=O)[C@H](C)NC(=O)[C@@H](NC(=O)[C@@H](NC(=O)CNC(=O)[C@@H](N)CCC(N)=O)C(C)C)[C@@H](C)O)C(=O)N[C@H](C(=O)N1CCC[C@H]1C(=O)N[C@@H](CCC(N)=O)C(=O)N[C@@H](C)C(=O)N[C@@H](CO)C(=O)N[C@H](C(=O)N[C@H](C(=O)N[C@@H](CCC(=O)O)C(=O)O)[C@@H](C)O)[C@@H](C)O)[C@@H](C)O")
6.15

Hello, the source for this data is paper PMC3794980, in case you need it.
